- System: pS6 S235/S236 in A2058 cells
- run.description: In-cell Western blot, pS6 S235/S236
- Assay type: cell-based
- condition.summary: Homo sapiens, A2058, 1 h, 1 hour treatment
pIC50: −log10 of the molar value.

molecule	modifier	pIC50
Nc1cc(C(F)F)c(-c2nc(N3C4CCC3COC4)nc(N3C4CCC3COC4)n2)cn1	=	6.98
CC[C@H]1COCCN1c1nc(-c2cnc(N)cc2C(F)F)nc(N2CCOC[C@H]2C)n1	=	6.62
C[C@H]1COCCN1c1nc(-c2cnc(N)cc2C(F)(F)F)cc(N2CCOCC2)n1 [reference compound]	=	6.64
CC[C@@H]1COCCN1c1nc(-c2cnc(N)cc2C(F)F)nc(N2CCOC[C@H]2CC)n1	=	6.68
Nc1ncc(-c2cc(N3CCOCC3)nc(N3C4CCC3COC4)n2)c(C(F)F)n1	=	6.78
C[C@@H]1COCCN1c1nc(-c2cnc(N)cc2C(F)F)nc(N2C3COCC2COC3)n1	=	6.75
Nc1ncc(-c2nc(N3CCNCC3)nc(N3CCOCC3)n2)c(C(F)F)n1	=	6.82
CC[C@@H]1COCCN1c1nc(-c2cnc(N)cc2C(F)F)nc(N2CCOC[C@H]2C)n1	=	6.63
C[C@H]1COCCN1c1nc(-c2cnc(N)cc2C(F)F)nc(N2C3CCC2COC3)n1	=	7.03
Nc1cc(C(F)F)c(-c2nc(N3CCNCC3)nc(N3CCOCC3)n2)cn1	=	6.29
C[C@H]1COCCN1c1cc(-c2cnc(N)cc2C(F)F)nc(N2CCOC[C@@H]2C)n1	=	6.53
CC(C)[C@@H]1COCCN1c1nc(-c2cnc(N)cc2C(F)F)nc(N2CCOC[C@H]2C(C)C)n1	<	5.00
Nc1ncc(-c2nc(N3CCOCC3)nc(N3CCSCC3)n2)c(C(F)F)n1	=	6.67
C[C@@H]1COC[C@H](C)N1c1nc(-c2cnc(N)cc2C(F)F)nc(N2CCOCC2(C)C)n1	=	6.86
Nc1cc(C(F)F)c(-c2nc(N3CCOCC3)nc(N3C4CCC3COC4)n2)cn1	=	6.87
Nc1cc(C(F)(F)F)c(-c2cc(N3CCOCC3)nc(N3C4CCC3COC4)n2)cn1 [reference compound]	=	6.25
C[C@H]1COCCN1c1cc(-c2cnc(N)nc2C(F)F)nc(N2CCOC[C@@H]2C)n1	=	6.72
Nc1ncc(-c2nc(N3CCOCC3)cc(N3CCOCC3)n2)c(C(F)(F)F)n1 [reference compound]	=	6.43
Nc1cc(C(F)F)c(-c2nc(N3C4CCC3COC4)nc(N3C4COCC3COC4)n2)cn1	=	7.10
C[C@@H]1COCCN1c1nc(-c2cnc(N)cc2C(F)F)nc(N2[C@H](C)COC[C@@H]2C)n1	=	7.06
C[C@@H]1COCCN1c1nc(-c2cnc(N)cc2C(F)F)nc(N2C[C@H]3C[C@@H]2CO3)n1	=	6.48
C[C@@H]1COCCN1c1nc(-c2cnc(N)cc2C(F)F)nc(N2CCOCC2(C)C)n1	=	7.03
Nc1cc(C(F)F)c(-c2nc(N3CCOCC34CCC4)nc(N3CCOCC34CCC4)n2)cn1	=	6.28
COCCN1CCN(c2nc(-c3cnc(N)cc3C(F)F)nc(N3CCOCC3(C)C)n2)CC1	=	5.50
COC[C@@H]1COCCN1c1nc(-c2cnc(N)cc2C(F)F)nc(N2CCOCC2(C)C)n1	=	6.40
C[C@H]1COCCN1c1cc(-c2cnc(N)nc2C(F)(F)F)nc(N2CCOCC2)n1 [reference compound]	=	5.99
C[C@@H]1COCCN1c1nc(-c2cnc(N)cc2C(F)F)nc(N2[C@H](C)COC[C@H]2C)n1	=	6.41
C[C@H]1COCCN1c1cc(-c2cnc(N)cc2C(F)(F)F)nc(N2CCOC[C@@H]2C)n1 [reference compound]	=	6.26
CC1(C)COCCN1c1nc(-c2cnc(N)cc2C(F)F)nc(N2CCN(C3CC3)CC2)n1	=	6.04
C[C@@H]1COCCN1c1nc(-c2cnc(N)cc2C(F)F)nc(N2CCOCC23CCC3)n1	=	6.72
C[C@H]1COCCN1c1nc(-c2cnc(N)nc2C(F)(F)F)cc(N2CCOCC2)n1 [reference compound]	=	6.27
Nc1cc(C(F)F)c(-c2nc(N3CCOCC3)nc(N3C4CCCC3COC4)n2)cn1	=	6.93

###

- experimental.target: N-terminally GST-tagged mTOR (Homo sapiens, UniProt P42345)
- Construct: truncated version: amino acids 1360-2549; purchased Life Technologies PR8683B
- Sequence (P42345 1360-2549): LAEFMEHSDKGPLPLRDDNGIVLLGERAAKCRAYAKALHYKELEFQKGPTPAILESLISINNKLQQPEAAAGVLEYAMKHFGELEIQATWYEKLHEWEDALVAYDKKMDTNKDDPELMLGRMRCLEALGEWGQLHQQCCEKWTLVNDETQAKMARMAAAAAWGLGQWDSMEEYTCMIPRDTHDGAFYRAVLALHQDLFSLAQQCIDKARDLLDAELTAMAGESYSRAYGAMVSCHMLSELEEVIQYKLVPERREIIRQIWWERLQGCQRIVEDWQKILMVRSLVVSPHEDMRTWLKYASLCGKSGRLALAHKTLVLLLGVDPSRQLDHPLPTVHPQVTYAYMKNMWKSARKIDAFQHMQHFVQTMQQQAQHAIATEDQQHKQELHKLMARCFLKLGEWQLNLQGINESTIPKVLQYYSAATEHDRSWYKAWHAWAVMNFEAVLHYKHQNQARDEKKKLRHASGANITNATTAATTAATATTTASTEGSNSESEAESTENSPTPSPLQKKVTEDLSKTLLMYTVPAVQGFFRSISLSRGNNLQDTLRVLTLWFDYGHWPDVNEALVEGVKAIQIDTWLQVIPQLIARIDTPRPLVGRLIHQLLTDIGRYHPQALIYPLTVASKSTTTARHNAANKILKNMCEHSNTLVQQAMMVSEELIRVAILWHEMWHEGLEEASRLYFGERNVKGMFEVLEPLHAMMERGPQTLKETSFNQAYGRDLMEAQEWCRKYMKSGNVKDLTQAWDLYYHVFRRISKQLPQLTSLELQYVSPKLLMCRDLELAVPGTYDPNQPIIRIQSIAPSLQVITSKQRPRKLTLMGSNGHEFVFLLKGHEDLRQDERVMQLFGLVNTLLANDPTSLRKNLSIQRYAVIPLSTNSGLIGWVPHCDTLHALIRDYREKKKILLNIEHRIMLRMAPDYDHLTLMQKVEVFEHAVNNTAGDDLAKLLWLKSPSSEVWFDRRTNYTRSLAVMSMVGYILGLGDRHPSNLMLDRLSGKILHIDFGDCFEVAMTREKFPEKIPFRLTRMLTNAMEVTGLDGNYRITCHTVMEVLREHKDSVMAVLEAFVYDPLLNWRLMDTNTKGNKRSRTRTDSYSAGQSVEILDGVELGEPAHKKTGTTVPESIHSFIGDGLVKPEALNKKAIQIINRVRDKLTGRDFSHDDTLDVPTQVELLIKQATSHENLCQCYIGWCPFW
- run.description: In vitro mTOR binding assay (LanthaScreen TR-FRET)
- condition.summary: LanthaScreen kinase binding, Tracer 314; read-out: mTOR IC50 (binding)
pIC50: −log10 of the molar value.

compound	pIC50
C[C@H]1COCCN1c1cc(-c2cnc(N)cc2C(F)(F)F)nc(N2CCOCC2)n1 [reference compound]	6.42
C[C@H]1COCCN1c1cc(-c2cnc(N)cc2C(F)(F)F)nc(N2CCOC[C@@H]2C)n1 [reference compound]	6.82
C[C@H]1COCCN1c1nc(-c2cnc(N)nc2C(F)(F)F)cc(N2CCOCC2)n1 [reference compound]	6.73
C[C@H]1COCCN1c1nc(-c2cnc(N)cc2C(F)F)nc(N2CCOCC2)n1	8.00

###

Reported pIC50 values are given for each entry in this list.
- Tested on: pS6 S235/S236 in A2058 cells
- run.description: In-cell Western blot, pS6 S235/S236
- Type: cell-based
- condition.summary: Homo sapiens, 1 hour treatment
pIC50: −log10 of the molar value.
reported.endpoint: pIC50

item.smiles	val
C[C@H]1COCCN1c1nc(-c2cnc(N)cc2C(F)F)cc(N2CCOCC2)n1	6.91
C[C@H]1COCCN1c1nc(-c2cnc(N)nc2C(F)F)cc(N2CCOCC2)n1	6.41
C[C@H]1COCCN1c1nc(-c2cnc(N)cc2C(F)(F)F)nc(N2CCOCC2)n1	7.05
Nc1cc(C(F)F)c(-c2nc(N3CCOCC3)cc(N3CCOCC3)n2)cn1	6.59

###

- Tested on: pS6 S235/S236 in A2058 cells
- run.description: In-cell Western blot, pS6 S235/S236
- Assay type: cell-based
- condition.summary: Homo sapiens, 1 hour treatment
The label Y is reserved for IC50 strictly under 100 nM; N covers values equal to or above it.

molecule	classification
Nc1cc(C(F)F)c(-c2cc(N3CCOCC3)nc(N3CCOCC3)n2)cn1	N
C[C@H]1COCCN1c1nc(-c2cnc(N)cc2C(F)F)nc(N2CCOCC2)n1	Y
C[C@H]1COCCN1c1cc(-c2cnc(N)cc2C(F)F)nc(N2CCOCC2)n1	N
C[C@@H]1COCCN1c1nc(-c2cnc(N)cc2C(F)F)nc(N2CCOC[C@H]2C)n1	N
Nc1ncc(-c2cc(N3CCOCC3)nc(N3CCOCC3)n2)c(C(F)F)n1	N
C[C@H]1COC[C@H](C)N1c1nc(-c2cnc(N)cc2C(F)F)nc(N2[C@@H](C)COC[C@@H]2C)n1	N
C[C@@H]1COC[C@H](C)N1c1nc(-c2cnc(N)cc2C(F)F)nc(N2[C@H](C)COC[C@@H]2C)n1	N
C[C@H]1COCCN1c1nc(-c2cnc(N)nc2C(F)F)nc(N2CCOCC2)n1	Y
Nc1cc(C(F)(F)F)c(-c2nc(N3CCOCC3)cc(N3CCOCC3)n2)cn1 [reference compound]	N

###

- experimental.target: N-terminally GST-tagged mTOR (Homo sapiens)
- Construct: truncated version: amino acids 1360-2549; purchased Life Technologies PR8683B
- run.description: In vitro mTOR binding assay (LanthaScreen TR-FRET)
- condition.summary: LanthaScreen kinase binding, Tracer 314; read-out: mTOR IC50 (binding)
pIC50: −log10 of the molar value.

molecule	pIC50
Nc1cc(C(F)(F)F)c(-c2cc(N3CCOCC3)nc(N3C4CCC3COC4)n2)cn1 [reference compound]	7.06
C[C@@H]1COCCN1c1nc(-c2cnc(N)cc2C(F)F)nc(N2C3COCC2COC3)n1	7.54
Nc1ncc(-c2cc(N3CCOCC3)nc(N3CCOCC3)n2)c(C(F)(F)F)n1 [reference compound]	6.19
Nc1cc(C(F)F)c(-c2nc(N3C4CCCC3COC4)nc(N3C4COCC3COC4)n2)cn1	7.40
Nc1ncc(-c2cc(N3CCOCC3)nc(N3C4CCC3COC4)n2)c(C(F)F)n1	7.46
Nc1ncc(-c2nc(N3CCNCC3)nc(N3CCOCC3)n2)c(C(F)F)n1	5.99
Nc1cc(C(F)(F)F)c(-c2nc(N3CCOCC3)cc(N3CCOCC3)n2)cn1 [reference compound]	6.44
C[C@@H]1COCCN1c1nc(-c2cnc(N)cc2C(F)F)nc(N2[C@H](C)COC[C@H]2C)n1	7.42
